molecular target: PfUCHL3 (Plasmodium falciparum, UniProt Q8IKM8); construct: gene UCHL3; experiment: fluorimetric Ub-AMC deubiquitinase assay with recombinant purified PfUCHL3, dose-response; assay type: biochemical; conditions: read-out: IC50
Sequence (Q8IKM8 whole entry): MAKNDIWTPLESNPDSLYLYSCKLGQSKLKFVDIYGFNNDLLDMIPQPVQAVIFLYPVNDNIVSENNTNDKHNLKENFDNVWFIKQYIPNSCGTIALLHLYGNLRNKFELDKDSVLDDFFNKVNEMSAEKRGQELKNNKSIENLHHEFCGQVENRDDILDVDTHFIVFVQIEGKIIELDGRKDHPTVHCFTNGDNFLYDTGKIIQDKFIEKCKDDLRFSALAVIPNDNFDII
endpoint: pIC50
Scale explanation: pIC50 corresponds to minus log10 of a concentration expressed in moles per litre.

Given item `Cc1cc2nc(NC(=O)C(C)(C)C)nc(Cl)c2n1Cc1ccc(Cl)cc1` , the value recorded as its pIC50 is 4.06

----------
biological target: PfUCHL3 (Plasmodium falciparum); construct: gene UCHL3; assay: fluorimetric Ub-AMC deubiquitinase assay with recombinant purified PfUCHL3, dose-response; type: biochemical
endpoint: IC50

Reading of IC50 for CC1COC2(CCN(c3nc(=O)c4cc(C(F)(F)F)cc([N+](=O)[O-])c4s3)CC2)O1 (stereo not shown) with PfUCHL3 (Plasmodium falciparum): 25.1 µM
